target: Cereblon/Ikaros (Homo sapiens) (UniProt Q96SW2+Q13422); test: Protac activity at CRBN/IKZF1 in human MM1.S cells assessed as induction of IKZF1 degradation at 1 uM incubated for 6 hrs relative to control; assay type: cell-based
READOUT: Activity
Record the result as number plus unit.

## Input Would you mind telling me what Activity value was observed for O=C1CCC(N2Cc3c(NC(=O)COCCOCCOCc4ccccc4)cccc3C2=O)C(=O)N1 (stereo not given) ?
## Output 0%

## Input Looking for the measured Activity of O=C1CCC(N2Cc3cc(NC(=O)COCCOCCOCc4ccccc4)ccc3C2=O)C(=O)N1 (stereo not given) , can you help?
## Output 6%

## Input Quick one: Activity of O=C(COc1cccc2c1C(=O)N(C1CCC(=O)NC1=O)C2=O)NCCOCCOCCOCc1ccccc1 (stereo not given) ?
## Output 0%

## Input Bench note: what Activity did O=C1CCC(N2C(=O)c3cccc(NC(=O)COCCOCCOCc4ccccc4)c3C2=O)C(=O)N1 (stereo not given) show?
## Output 14%

## Input Which measured Activity value corresponds to O=C1CCC(N2Cc3c(NCCOCCOCCOCc4ccccc4)cccc3C2=O)C(=O)N1 (stereo not given) ?
## Output 5%
